- STUDY SYSTEM: T1, human IL-18BP (human, UniProt O95998 31-194)
- T1 construct: UniProt printed as 095998; also called hIL-18BP
- T1 sequence: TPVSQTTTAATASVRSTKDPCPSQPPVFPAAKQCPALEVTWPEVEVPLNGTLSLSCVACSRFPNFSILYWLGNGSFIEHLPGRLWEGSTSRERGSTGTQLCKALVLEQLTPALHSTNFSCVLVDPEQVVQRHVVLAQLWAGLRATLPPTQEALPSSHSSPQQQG
- ASSAY OVERVIEW: BLI, apparent KD
OBSERVATION TYPE: Kd
The number alone won't do; follow it with the unit.

{"BINDER": "SA301a HC-Y100N (antibody, V domains shown) VH: QVQLQESGPGLVKPSQTLSLTCTVSGYSITSDYNSHWIRQPPGKGLEWIGYIHYSGSTNYNPSLKSRVTISRDTSKNQFSLKLSSVTAADTAVYYCARNYGSINVNYFDYWGQGTLVTVSS VL: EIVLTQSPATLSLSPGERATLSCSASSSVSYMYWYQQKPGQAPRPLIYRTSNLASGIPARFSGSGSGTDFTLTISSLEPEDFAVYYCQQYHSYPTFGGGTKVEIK", "Kd": "0.9 nM"}

Query string: Please report the measured Kd for SA301a HC-Y100H (antibody, V domains shown) VH: QVQLQESGPGLVKPSQTLSLTCTVSGYSITSDYNSHWIRQPPGKGLEWIGYIHYSGSTNYNPSLKSRVTISRDTSKNQFSLKLSSVTAADTAVYYCARNYGSIHVNYFDYWGQGTLVTVSS VL: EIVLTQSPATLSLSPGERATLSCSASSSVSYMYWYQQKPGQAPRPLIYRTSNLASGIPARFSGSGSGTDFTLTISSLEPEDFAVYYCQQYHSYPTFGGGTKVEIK
Result string: 1.3 nM
